STUDY_TARGET: T1, HLA-A2/E6 (29-38) tetramer (human; HPV 16)
T1 construct: also called E6(29-38) peptide-MHC tetramer; E6(29-38)-loaded tetramer
EXPERIMENT_DESCRIPTION: tetramer flow cytometry; transfected Jurkat-derived cells, CD8+ population

BINDER: TCR 23 (codon optimized, cysteine modified version) (TCR, V domains shown) V domain 1: AQKITQTQPGMFVQEKEAVTLDCTYDTSDQSYGLFWYKQPSSGEMIFLIYQGSYDEQNATEGRYSLNFQKARKSANLVISASQLGDSAMYFCAMSPPGGSARQLTFGSGTQLTVLP V domain 2: DVKVTQSSRYLVKRTGEKVFLECVQDMDHENMFWYRQDPGLGLRLIYFSYDVKMKEKGDIPEGYSVSREKKERFSLILESASTNQTSMYLCASSPWGQSNQPQHFGDGTRLSILE
% cells in E6 tet-/CD8+ quadrant: 54.1%
//
BINDER: TCR 18 (codon optimized, cysteine modified version) (TCR, V domains shown) V domain 1: KQEVTQIPAALSVPEGENLVLNCSFTDSAIYNLQWFRQDPGKGLTSLLLIQSSQREQTSGRLNASLDKSSGRSTLYIAASQPGDSATYLCAEGNAGGTSYGKLTFGQGTILTVHP V domain 2: DVKVTQSSRYLVKRTGEKVFLECVQDMDHENMFWYRQDPGLGLRLIYFSYDVKMKEKGDIPEGYSVSREKKERFSLILESASTNQTSMYLCASSFWGRSNSPLHFGNGTRLTVTE
% cells in E6 tet-/CD8+ quadrant: 47.7%
//
BINDER: TCR 17 (codon optimized, cysteine modified version) (TCR, V domains shown) V domain 1: AQKITQTQPGMFVQEKEAVTLDCTYDTSDPSYGLFWYKQPSSGEMIFLIYQGSYDQQNATEGRYSLNFQKARKSANLVISASQLGDSAMYFCAMREGRGDKIIFGKGTRLHILP V domain 2: DVKVTQSSRYLVKRTGEKVFLECVQDMDHENMFWYRQDPGLGLRLIYFSYDVKMKEKGDIPEGYSVSREKKERFSLILESASTNQTSMYLCASSLWGRSNQPQHFGDGTRLSILE
% cells in E6 tet-/CD8+ quadrant: 63.6%
